Taken from patent US6380217B1.

- ASSAY_TARGET: GGT (gamma glutamyl transpeptidase) of H. pylori ATCC 43504 cells (Helicobacter pylori)
- Sequence (O25743 entry or part of it): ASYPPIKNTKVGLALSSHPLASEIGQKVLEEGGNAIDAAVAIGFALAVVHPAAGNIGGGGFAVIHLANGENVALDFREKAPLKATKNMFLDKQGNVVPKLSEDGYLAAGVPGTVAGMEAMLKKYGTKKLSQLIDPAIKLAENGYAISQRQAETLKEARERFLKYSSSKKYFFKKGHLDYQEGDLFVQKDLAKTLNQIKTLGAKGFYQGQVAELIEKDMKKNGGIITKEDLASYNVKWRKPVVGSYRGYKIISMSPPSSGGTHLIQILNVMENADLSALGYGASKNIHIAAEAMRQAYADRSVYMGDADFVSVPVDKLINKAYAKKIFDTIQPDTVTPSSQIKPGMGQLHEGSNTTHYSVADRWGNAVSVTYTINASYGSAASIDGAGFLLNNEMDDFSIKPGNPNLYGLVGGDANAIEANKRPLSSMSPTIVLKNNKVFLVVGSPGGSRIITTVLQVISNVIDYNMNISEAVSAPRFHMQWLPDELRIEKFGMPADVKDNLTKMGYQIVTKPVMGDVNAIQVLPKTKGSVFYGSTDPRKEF
- TEST_PROTOCOL: Cell Based GGT Inhibitor (CBGI) Assay
- CONDITION_SUMMARY: whole H. pylori ATCC 43504 cells, ~30 min room temperature, AMC release fluorescence; table titled 'Binding Data of GGT Modulating Compounds'
MEASURED_PROPERTY: IC50

Before answering, review these 6 worked examples.
Cc1ccc(CSc2nnc(/N=C/N(C)C)s2)cc1    2.02 µM
COc1cccc(-c2cc3[nH]c(C)cc(=O)n3n2)c1    2.15 µM
CCN(CC)CCn1c(SCC(=O)c2ccc(-c3ccccc3)cc2)nc2cc(C(=O)NC(Cc3cn(Cc4ccccc4)cn3)C(N)=O)ccc21 (stereo not shown)    11.2 µM
COc1cc(/C=C2/SC(=S)NC2=O)ccc1O    22.4 µM
CC(C)OC(=O)CSc1nc2cc(C(=O)NC(Cc3cnc[nH]3)C(N)=O)ccc2n1CCc1c[nH]c2ccccc12 (stereo not shown)    4.53 µM
Cc1nc(-c2nc(C(=O)/C=C/N(C)C)cs2)cs1    17.9 to 35.8 µM

Lab note: next molecule to report on.
Form field IC50, entry CCN1CCCC(NC(=O)c2ccc(Nc3ccnc4cc5ccccc5cc34)cc2)C1 (stereo not shown) : 1.13 µM
